tested on: 521955-158-R2-J5-PDC complex spheroids, viability; experiment: Anticancer human tumor 521955-158-R2-J5-PDC patient-derived pancreatic carcinoma cell line growth inhibition [RAS]; conditions: second compound 1 µM; first compound 1 µM; stronger effect = lower value;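 further: spheroids also contain HUVEC endothelial cells and mesenchymal stem cells as stroma; compound exposure lasted seven days before the viability read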
MEASURE NAME: viability, T/C (%)
Please reply with the bare figure in % and do not write the unit itself.

Lab book: viability, T/C of C[C@@H](NC(=O)c1ncnc(N)c1Cl)c1ncc(C(=O)Nc2cc(C(F)(F)F)c(Cl)cn2)s1 + C=CC(=O)N1CCN(c2nc(OCC3CCCN3C)nc3c(F)c(-c4nc(N)cc(C)c4C(F)(F)F)c(Cl)cc23)C(C)C1 noted as 76.5

response.value for CC(Nc1ccc2c(c1)OCCn1cc(N3C(=O)OCC3C(F)F)nc1-2)C(N)=O (centres undefined) + C=CC(=O)N1CCN(c2nc(OCC3CCCN3C)nc3c(F)c(-c4nc(N)cc(C)c4C(F)(F)F)c(Cl)cc23)C(C)C1 (field: viability, T/C) = 35.4

For this compound ( O=C(c1ccc(F)c(F)c1Nc1ccc(I)cc1F)N1CC(O)([C@@H]2CCCCN2)C1 + C=CC(=O)N1CCN(c2nc(OCC3CCCN3C)nc3c(F)c(-c4nc(N)cc(C)c4C(F)(F)F)c(Cl)cc23)C(C)C1 ), measured viability, T/C is 22.6

The compound listed as CCC(CC)c1cc(NC2CCC(N)C2)n2nccc2n1 (centres undefined) + C#Cc1c(F)ccc2cc(O)cc(-c3ncc4c(N5CC6CCC(C5)N6)nc(OCC56CCCN5CC(F)C6)nc4c3F)c12 has a reported viability, T/C of 48.1

Data credit: PubChem BioAssay AID2060900
